Tested on: TRPC4 (mouse), co-expressed with 5HT1a in HEK293
assay_details: enhancement of serotonin-evoked TRPC4 response – cell-based, second counter screen, HEK293 TRPC4/5HT1a, Fluo-4, counter-screen for TRPC4 potentiator project, confirmation (AID 434979)
condition_description: Fluo-4 calcium flux, at 10 µM, serotonin added at its EC20 dose
Activity calls are given as the source filed them.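 The calls were made as follows: active = signal rise over 3 SD above mean of control wells given weak agonist, in both repeats and first screen; inactive = the rest.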
Answer with one of the outcomes active, inactive

Observe how each entry below is paired with its result.
compound	class_label
O=C(CCCCn1c(=O)[nH]c2ccccc2c1=O)NC1CCN(Cc2ccccc2)CC1	inactive
CNC[C@H](Cc1ccccc1)NC[C@@H](Cc1cccc2ccccc12)NCCc1ccc(C)cc1	inactive

Query: Each compound tested received a call. Report the one for `O=C(CCCSc1nc2ccccc2[nH]1)NCc1ccccc1Cl` .
Response: inactive

Query: Then O=C(NCC(c1cccs1)N1CCOCC1)c1ccc(Cl)c([N+](=O)[O-])c1 (stereo not drawn) ?
Response: inactive

Query: Then `CCNc1nc(NC(C)(C)C)nc(N2CCCC2)n1` ?
Response: inactive

Query: Then CCN1CCCC1CNC(=O)c1cc2c(OC)cccc2[nH]1 (stereo not drawn) ?
Response: inactive
